- measurementTarget: EXP1 (Plasmodium falciparum)
assayReadout: pKi
Reminder that pKi means the negative base-10 logarithm of the concentration expressed in mol/L.

**Q:** Requested read-out: pKi. Entry: C=CC1=C(C)C2=Cc3c(C=C)c(C)c4[n]3[Fe+][n]3c(c(C)c(CCC(=O)O)c3=CC3=NC(=C4)C(C)=C3CCC(=O)O)=CC1=N2 [hematin]
**A:** 6.77
